# assayed-system: paLpxC (Pseudomonas aeruginosa (strain ATCC 15692 / DSM 22644 / CIP 104116 / JCM 14847 / LMG 12228 / 1C / PRS 101 / PAO1), UniProt P47205)
# Sequence (P47205 1-299): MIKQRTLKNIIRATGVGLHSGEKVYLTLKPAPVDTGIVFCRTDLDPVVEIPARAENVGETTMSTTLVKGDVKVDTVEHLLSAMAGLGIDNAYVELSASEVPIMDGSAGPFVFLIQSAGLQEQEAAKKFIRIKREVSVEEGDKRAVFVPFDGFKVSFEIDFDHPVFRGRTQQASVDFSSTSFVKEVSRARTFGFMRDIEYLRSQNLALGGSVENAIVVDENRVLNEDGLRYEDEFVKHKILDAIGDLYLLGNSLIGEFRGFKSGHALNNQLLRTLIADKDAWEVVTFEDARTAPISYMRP
# test-summary: biochemical
# Type: binding
# experimental-conditions: 37° C., fluorescence competition
Reported Ki values for the following molecules.
reported-endpoint: Ki (pM)

{"columns": ["molecule", "reported-endpoint", "display-unit", "experimental-value"],
 "data": [
  ["CC(CCn1ccc(-c2ccc(-c3cn(Cc4ccccn4)nn3)cc2)cc1=O)(C(=O)NO)S(C)(=O)=O (racemic) [PT914]", "Ki", "pM", 5.5],
  ["CC(CCn1ccc(-c2ccc(-c3cn(Cc4cccnc4)nn3)cc2)cc1=O)(C(=O)NO)S(C)(=O)=O (racemic) [PT917]", "Ki", "pM", 3.2],
  ["CC(CCn1ccc(-c2ccc(N)cc2)cc1=O)(C(=O)NO)S(C)(=O)=O (centres unmarked) [PT919]", "Ki", "pM", 4],
  ["CC(CCn1ccc(-c2ccc(-c3cn(CC4CCCCC4)nn3)cc2)cc1=O)(C(=O)NO)S(C)(=O)=O (racemic) [PT910]", "Ki", "pM", 5.5],
  ["CC(CCn1ccc(-c2ccc(-c3cn(CC4CC4)nn3)cc2)cc1=O)(C(=O)NO)S(C)(=O)=O (racemic) [PT908]", "Ki", "pM", 10.2],
  ["CC(CCn1ccc(-c2ccc(-c3cn(Cc4ccccc4)nn3)cc2)cc1=O)(C(=O)NO)S(C)(=O)=O (racemic) [PT810]", "Ki", "pM", 10.6],
  ["CC(CCn1ccc(-c2ccc(C(=O)NCc3ccccc3)cc2)cc1=O)(C(=O)NO)S(C)(=O)=O (racemic) [PT923]", "Ki", "pM", 274],
  ["CC(CCn1ccc(-c2ccc(NC(=O)Cc3ccccc3)cc2)cc1=O)(C(=O)NO)S(C)(=O)=O (racemic) [PT924]", "Ki", "pM", 95.4],
  ["CC(CCn1ccc(-c2ccc(-c3cn(Cc4ccc([N+](=O)[O-])cc4)nn3)cc2)cc1=O)(C(=O)NO)S(C)(=O)=O (racemic) [PT918]", "Ki", "pM", 7],
  ["CC(CCn1ccc(-c2ccc(-c3cn(Cc4ccc(F)cc4)nn3)cc2)cc1=O)(C(=O)NO)S(C)(=O)=O (racemic) [PT909]", "Ki", "pM", 8],
  ["C=CCn1cc(-c2ccc(-c3ccn(CCC(C)(C(=O)NO)S(C)(=O)=O)c(=O)c3)cc2)nn1 (racemic) [PT907]", "Ki", "pM", 6.1],
  ["COc1ccc(-c2ccc(CNC3(C(=O)NO)CCS(=O)(=O)CC3)cc2)c(F)c1 [PT920]", "Ki", "pM", 37.9],
  ["CC(CCn1ccc(-c2ccc(-c3cn(Cc4ccncn4)nn3)cc2)cc1=O)(C(=O)NO)S(C)(=O)=O (racemic) [PT916]", "Ki", "pM", 4.2],
  ["COc1ccc(-c2ccc(CNC3(C(=O)NO)CCS(=O)(=O)CC3)cc2F)cc1 [PT921]", "Ki", "pM", 14.4],
  ["CC(CCn1ccc(-c2ccc(-c3cn(CC45CC(C4)C5)nn3)cc2)cc1=O)(C(=O)NO)S(C)(=O)=O (racemic) [PT913]", "Ki", "pM", 2.1],
  ["CC(CCn1ccc(-c2ccc(-c3cn(CCO)nn3)cc2)cc1=O)(C(=O)NO)S(C)(=O)=O (racemic) [PT912]", "Ki", "pM", 3.7],
  ["CC(CCn1ccc(-c2ccc(CN3CCOCC3)cc2)cc1=O)(C(=O)NO)S(C)(=O)=O (racemic) [PT904]", "Ki", "pM", 96.8]
]}

Hello, the source for this data is patent US20250099433A1, in case you need it.
